- TARGET SYSTEM: PAR2 (HT-29 cells, trypsin activation) (Homo sapiens, UniProt P55085)
- Construct: host or cells: HT-29 cells
- Sequence (P55085 26-397): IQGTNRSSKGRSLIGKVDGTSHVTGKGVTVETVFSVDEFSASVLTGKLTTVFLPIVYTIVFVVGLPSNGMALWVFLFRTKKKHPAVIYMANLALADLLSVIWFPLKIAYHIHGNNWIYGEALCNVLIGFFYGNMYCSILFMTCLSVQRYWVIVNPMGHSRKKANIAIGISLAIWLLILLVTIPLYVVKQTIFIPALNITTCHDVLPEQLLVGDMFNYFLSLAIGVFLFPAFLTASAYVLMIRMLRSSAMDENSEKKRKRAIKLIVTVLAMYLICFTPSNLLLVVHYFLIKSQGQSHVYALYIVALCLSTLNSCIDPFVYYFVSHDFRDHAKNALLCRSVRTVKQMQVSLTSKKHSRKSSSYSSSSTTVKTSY
- MEASUREMENT PROTOCOL: Ca FLIPR TETRA assay, ANTAGONIST mode, stimulation with 3.1 U/mL trypsin
- Assay type: cell-based
- ASSAY SETUP: HT-29 cells, antagonist mode, stimulation with 3.1 U/mL trypsin
TEST READOUT: pIC50
Schema: pIC50 number; meaning minus log10 of the concentration expressed in molar units.

CC(C)(C)c1cc(C2CCC(F)(F)CC2)nn2cc(C(=O)N3CCN(C(=O)[C@H]4C[C@H](C(=O)O)C4)CC3(C)C)nc12; 6.96
Cc1nnc(C(=O)N2CCN(C(=O)c3cn4nc(-c5ccc(F)c(C)c5)cc(C(C)(C)C)c4n3)C(C)(C)C2)o1; 8.37
Cc1ccc(-c2cc(C(C)(C)C)c3nc(C(=O)N4CCN(c5c[nH]cn5)C(=O)C4(C)C)cn3n2)cc1F; 8.52
Cc1nc[nH]c1C(=O)N1CCN(C(=O)c2cn3nc(-c4ccc(F)cc4)cc(C(C)(C)C)c3n2)C(C)(C)C1; 8.39
Cc1ccc(-c2cc(C(C)(C)C)c3nc(C(=O)N4CCNC(=O)C4(C)C)cn3n2)cc1; 8.64

What value of pIC50 has been recorded for this entry: Cc1cc(-c2cc(C(C)(C)C)c3nc(C(=O)N4CCN(C(=O)c5ncccn5)CC4(C)C)cn3n2)ccc1F
8.51

Same thing, different molecule: CC(C)c1cc(-c2ccc(F)c(F)c2)nn2cc(C(=O)N3CCNC(=O)C3(C)C)nc12
8.07
